Experiment: Diameter and PDI from DLS measurements of mRNA nanoparticles with lipid amines
Format: physicochemical
Settings: Luciferase mRNA nanoparticle modified with lipid amine
Structures can show the parent of a compound that is named as a salt.
Provide the reported PDI of each item.

Problem: Record request: PDI value, item CC(C)CCC[C@@H](C)[C@H]1CC[C@H]2[C@@H]3CC=C4C[C@@H](SSCCC(=O)N(CCC(C)N)CCC(C)N)CC[C@]4(C)[C@H]3CC[C@]12C (stereo partly drawn) [SA173, dihydrochloride]
Solution: 0.18

Problem: Try this compound next: CC[C@H](CC[C@@H](C)[C@H]1CC[C@H]2[C@@H]3CC=C4C[C@@H](OC(=O)CCC(=O)N(CCCCNCCC(C)(C)N)CCC(C)(C)N)CC[C@]4(C)[C@H]3CC[C@]12C)C(C)C [SA161, trihydrochloride]
Solution: 0.16

Problem: Try this compound next: CC(C)CCC[C@@H](C)[C@H]1CC[C@H]2[C@@H]3CC=C4C[C@@H](OC(=O)N(CCCN)CCCCCCN)CC[C@]4(C)[C@H]3CC[C@]12C [SA83, dihydrochloride]
Solution: 0.14

Problem: Try this compound next: CC(C)CCC[C@@H](C)[C@H]1CC[C@H]2[C@@H]3CC=C4C[C@@H](OC(=O)CCCC(=O)N(CCCCCCCC(C)(C)N)CCC(C)(C)N)CC[C@]4(C)[C@H]3CC[C@]12C.Cl.Cl [SA141]
Solution: 0.15

Problem: Try this compound next: CC(C)CCC[C@@H](C)[C@H]1CC[C@H]2[C@@H]3CC=C4C[C@@H](SSCCC(=O)N(CCCCNCCC(C)N)CCC(C)N)CC[C@]4(C)[C@H]3CC[C@]12C (stereo partly drawn) [SA171, trihydrochloride]
Solution: 0.23

Problem: Try this compound next: CC[C@H](CC[C@@H](C)[C@H]1CC[C@H]2[C@@H]3CC=C4C[C@@H](OC(=O)N(CCCCCCCC(C)N)CCC(C)N)CC[C@]4(C)[C@H]3CC[C@]12C)C(C)C (stereo partly drawn) [SA144, dihydrochloride]
Solution: 0.15

Problem: Try this compound next: CC[C@H](CC[C@@H](C)[C@H]1CC[C@H]2[C@@H]3CC=C4C[C@@H](OC(=O)N(CCCN)CCCCCCN)CC[C@]4(C)[C@H]3CC[C@]12C)C(C)C [SA84, dihydrochloride]
Solution: 0.16

Problem: Try this compound next: CC[C@H](CC[C@@H](C)[C@H]1CC[C@H]2[C@@H]3CC=C4C[C@@H](OC(=O)CCCC(=O)N(CCCN)CCCCNCCCN)CC[C@]4(C)[C@H]3CC[C@]12C)C(C)C [SA117, trihydrochloride]
Solution: 0.28

Problem: Try this compound next: CC[C@H](CC[C@@H](C)[C@H]1CC[C@H]2[C@@H]3CC=C4C[C@@H](OC(=O)CCC(=O)N(CCCC(C)(C)N)CCC(C)(C)N)CC[C@]4(C)[C@H]3CC[C@]12C)C(C)C [SA167, dihydrochloride]
Solution: 0.15

====

Provide the reported Diameter (nm) of each item.
Experiment: Diameter and PDI from DLS measurements of mRNA nanoparticles with lipid amines
Assay type: physicochemical
Details: Luciferase mRNA nanoparticle modified with lipid amine
Counter-ions that a name gives are not always drawn.
Hi! Could you send only the number? It should be in nm, unit omitted.

Problem: Record request: Diameter (nm) value, item CCC(N)(CC)CCNCCCCN(CCC(N)(CC)CC)C(=O)CCCC(=O)O[C@H]1CC[C@@]2(C)C(=CC[C@H]3[C@@H]4CC[C@H]([C@H](C)CCCC(C)C)[C@@]4(C)CC[C@@H]32)C1 [SA185, trihydrochloride]
Solution: 75

Problem: Try this compound next: CC(C)CCC[C@@H](C)[C@H]1CC[C@H]2[C@@H]3CC=C4C[C@@H](OC(=O)N(CCCCNCC(O)CN)CC(O)CN)CC[C@]4(C)[C@H]3CC[C@]12C (stereo partly shown) [SA88, trihydrochloride]
Solution: 75

Problem: Try this compound next: CC(C)CCC[C@@H](C)[C@H]1CC[C@H]2[C@@H]3CC=C4C[C@@H](OC(=O)CCCC(=O)N(CCCCCCCC(C)(C)N)CCC(C)(C)N)CC[C@]4(C)[C@H]3CC[C@]12C.Cl.Cl [SA141]
Solution: 73

Problem: Try this compound next: CC(C)CCC[C@@H](C)[C@H]1CC[C@H]2[C@@H]3CC=C4C[C@@H](OC(=O)N(CCCCCCN)CCCCCCN)CC[C@]4(C)[C@H]3CC[C@]12C [SA81, dihydrochloride]
Solution: 72

====

Assay: Diameter and PDI from DLS measurements of mRNA nanoparticles with lipid amines
Type: physicochemical
Details: CFTR mRNA nanoparticle with lipid amine
Counter-ions that a name gives are not always drawn.
Lab note: anything with Diameter (nm) at or over 80 nm counts as Fulfilled; the rest go in Not fulfilled.

Problem: // inclusive: Diameter (nm) at least 80 nm? input: CC(C)CCC[C@@H](C)[C@H]1CC[C@H]2[C@@H]3CC=C4C[C@@H](OC(=O)CCCC(=O)N(CCCN)CCCCNCCCN)CC[C@]4(C)[C@H]3CC[C@]12C.Cl.Cl.Cl
Solution: Not fulfilled

Problem: Try this compound next: CC[C@H](CC[C@@H](C)[C@H]1CC[C@H]2[C@@H]3CC=C4C[C@@H](OC(=O)CCCC(=O)N(CCCCNCCC(C)(C)N)CCC(C)(C)N)CC[C@]4(C)[C@H]3CC[C@]12C)C(C)C.Cl.Cl.Cl
Solution: Not fulfilled

Problem: Try this compound next: CC(C)CCC[C@@H](C)[C@H]1CC[C@H]2[C@@H]3CC=C4C[C@@H](OC(=O)CSSCC(=O)N(CCCN)CCCCNCCCN)CC[C@]4(C)[C@H]3CC[C@]12C [SA98, trihydrochloride]
Solution: Fulfilled

Problem: Try this compound next: CC[C@H](CC[C@@H](C)[C@H]1CC[C@H]2[C@@H]3CC=C4C[C@@H](OC(=O)CN(CCCN)CCCCNCCCN)CC[C@]4(C)[C@H]3CC[C@]12C)C(C)C
Solution: Fulfilled

====

Experiment: Encapsulation of mRNA nanoparticles with lipid amines using Ribogreen assay
Type: physicochemical
Conditions: Luciferase mRNA nanoparticle modified with lipid amine
Where a name gives a salt, the structure may show the parent alone.
MEASUREMENT KIND: % Encapsulation (Ribogreen) (%)
Hi! Could you send only the number? It should be in %, unit omitted.

Problem: Record request: % Encapsulation (Ribogreen) value, item CC(C)CCC[C@@H](C)[C@H]1CC[C@H]2[C@@H]3CC=C4C[C@@H](OC(=O)N(CCCCCCN)CCCCCCN)CC[C@]4(C)[C@H]3CC[C@]12C [SA81, dihydrochloride]
Solution: 99.8

Problem: Try this compound next: CC(C)CCC[C@@H](C)[C@H]1CC[C@H]2[C@@H]3CC=C4C[C@@H](OC(=O)CCCC(=O)N(CCCCCCCC(C)N)CCC(C)N)CC[C@]4(C)[C@H]3CC[C@]12C (stereo partly drawn) [SA142, dihydrochloride]
Solution: 99.5

Problem: Try this compound next: CC(C)CCC[C@@H](C)[C@H]1CC[C@H]2[C@@H]3CC=C4C[C@@H](OC(=O)CCC(=O)N(CCCC(C)(C)N)CCC(C)(C)N)CC[C@]4(C)[C@H]3CC[C@]12C [SA166, dihydrochloride]
Solution: 99.2

Problem: Try this compound next: CC(C)CCC[C@@H](C)[C@H]1CC[C@H]2[C@@H]3CC=C4C[C@@H](OC(=O)N(CCCCCCCC(C)(C)N)CCC(C)(C)N)CC[C@]4(C)[C@H]3CC[C@]12C [SA152, dihydrochloride]
Solution: 98.2

Problem: Try this compound next: CC(C)CCC[C@@H](C)[C@H]1CC[C@H]2[C@@H]3CC=C4C[C@@H](SSCCC(=O)N(CCCC(C)(C)N)CCC(C)(C)N)CC[C@]4(C)[C@H]3CC[C@]12C [SA145, dihydrochloride]
Solution: 99.7

Problem: Try this compound next: CC[C@H](CC[C@@H](C)[C@H]1CC[C@H]2[C@@H]3CC=C4C[C@@H](OC(=O)N(CCCN)CCCCCCN)CC[C@]4(C)[C@H]3CC[C@]12C)C(C)C [SA84, dihydrochloride]
Solution: 99.9

Problem: Try this compound next: CC(C)CCC[C@@H](C)[C@H]1CC[C@H]2[C@@H]3CC=C4C[C@@H](OC(=O)CCC(=O)N(CCCCNCCC(C)N)CCC(C)N)CC[C@]4(C)[C@H]3CC[C@]12C (stereo partly drawn) [SA160, trihydrochloride]
Solution: 99.7

Problem: Try this compound next: CC(C)CCC[C@@H](C)[C@H]1CC[C@H]2[C@@H]3CC=C4C[C@@H](OC(=O)N(CCCN)CCCCCCCCCCN)CC[C@]4(C)[C@H]3CC[C@]12C [SA95, dihydrochloride]
Solution: 99.7

Problem: Try this compound next: CC(C)CCC[C@@H](C)[C@H]1CC[C@H]2[C@@H]3CC=C4C[C@@H](OC(=O)CCCC(=O)N(CCCCNCCC(C)N)CCC(C)N)CC[C@]4(C)[C@H]3CC[C@]12C.Cl.Cl.Cl (stereo partly drawn)
Solution: 99.7
